tested on: UACC-62 melanoma; test: NCI-60 one-dose screen, 48 h (100 = growth as untreated, 0 = no growth, -100 = all killed); conditions: 10 µM
Compounds without any hit were thinned out: in the full panel of roughly 83,000, 20% have a hit.
Definition: the class of an entry is the range in lowest (below 20%), middle (20% to below 90%), highest (90% or more) that contains its growth.

Study these solved cases before continuing.
[[record]]
compound = "CC1(C)N=C(N)N=C(N)N1c1ccc(CCc2ccccc2)c(Cl)c1"
class_name = "middle"

[[record]]
compound = "COc1cc(Nc2ccnc(NCCNc3ccnc4cc(Cl)ccc34)n2)cc(OC)c1"
class_name = "middle"

[[record]]
compound = "CC(=O)N1C/C(=C/c2ccc(Cl)cc2)C(=O)/C(=C/c2ccc(Cl)cc2)C1"
class_name = "lowest"

[[record]]
compound = "N#Cc1ncc(Br)c(NC2CCCCCC2)n1"
class_name = "highest"

[[record]]
compound = "COc1cc(NC(=O)CSc2nc3ccccc3c(=O)n2CCc2ccccc2)cc(OC)c1OC"
class_name = "middle"

[[record]]
compound = "CCN(CC)CCOc1nc2ccccc2c2c1-c1ccc(OC)cc1C2=O"
class_name = "lowest"

[[record]]
compound = "CC(C)(C)c1cc(Br)cc(C(C)(C)C)c1O"
class_name = "highest"

[[record]]
compound = "CSCCCNC(=O)c1ccc2c(c1)/C(=C/c1[nH]c(C)cc1C)C(=O)N2"
class_name = "lowest"


[ask] Band of Cc1occc1-c1nnc(SCC(=O)c2ccc(NC(=O)CC(C)C)cc2)o1 ?
[reply] highest

[ask] Band of CN(C)CC(O)c1ccc2cc(Br)c3ccccc3c2c1 (centres undefined) ?
[reply] lowest

[ask] Band of CC(=O)n1c(-c2ccc(Cl)c(Cl)c2)cn(-c2ccc(Cl)cc2)c1=O ?
[reply] lowest

[ask] Band of COc1ccc(-c2nc3sc(-c4ccc(OC)cc4)c(-c4ccc(OC)cc4)n3c2/C=C/c2ccc(C(C)C)cc2)cc1 ?
[reply] middle

[ask] Band of Oc1[nH]c2ccc(Cl)cc2c1/C=c1/ccc2c(c1)N=C(c1cc(F)cc(F)c1)N=2 ?
[reply] middle
